- tested.target: Potassium-transporting ATPase (Sus scrofa, UniProt P19156)
- Sequence (P18434 whole entry): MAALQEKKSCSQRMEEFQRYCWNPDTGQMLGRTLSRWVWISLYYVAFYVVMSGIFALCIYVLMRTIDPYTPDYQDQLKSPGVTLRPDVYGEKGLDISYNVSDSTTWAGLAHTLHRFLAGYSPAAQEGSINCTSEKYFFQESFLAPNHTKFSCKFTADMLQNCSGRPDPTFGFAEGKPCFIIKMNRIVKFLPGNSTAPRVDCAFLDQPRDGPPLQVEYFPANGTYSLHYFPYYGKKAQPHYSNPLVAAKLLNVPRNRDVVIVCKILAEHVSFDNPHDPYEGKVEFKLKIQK
- Sequence (P19156 whole entry): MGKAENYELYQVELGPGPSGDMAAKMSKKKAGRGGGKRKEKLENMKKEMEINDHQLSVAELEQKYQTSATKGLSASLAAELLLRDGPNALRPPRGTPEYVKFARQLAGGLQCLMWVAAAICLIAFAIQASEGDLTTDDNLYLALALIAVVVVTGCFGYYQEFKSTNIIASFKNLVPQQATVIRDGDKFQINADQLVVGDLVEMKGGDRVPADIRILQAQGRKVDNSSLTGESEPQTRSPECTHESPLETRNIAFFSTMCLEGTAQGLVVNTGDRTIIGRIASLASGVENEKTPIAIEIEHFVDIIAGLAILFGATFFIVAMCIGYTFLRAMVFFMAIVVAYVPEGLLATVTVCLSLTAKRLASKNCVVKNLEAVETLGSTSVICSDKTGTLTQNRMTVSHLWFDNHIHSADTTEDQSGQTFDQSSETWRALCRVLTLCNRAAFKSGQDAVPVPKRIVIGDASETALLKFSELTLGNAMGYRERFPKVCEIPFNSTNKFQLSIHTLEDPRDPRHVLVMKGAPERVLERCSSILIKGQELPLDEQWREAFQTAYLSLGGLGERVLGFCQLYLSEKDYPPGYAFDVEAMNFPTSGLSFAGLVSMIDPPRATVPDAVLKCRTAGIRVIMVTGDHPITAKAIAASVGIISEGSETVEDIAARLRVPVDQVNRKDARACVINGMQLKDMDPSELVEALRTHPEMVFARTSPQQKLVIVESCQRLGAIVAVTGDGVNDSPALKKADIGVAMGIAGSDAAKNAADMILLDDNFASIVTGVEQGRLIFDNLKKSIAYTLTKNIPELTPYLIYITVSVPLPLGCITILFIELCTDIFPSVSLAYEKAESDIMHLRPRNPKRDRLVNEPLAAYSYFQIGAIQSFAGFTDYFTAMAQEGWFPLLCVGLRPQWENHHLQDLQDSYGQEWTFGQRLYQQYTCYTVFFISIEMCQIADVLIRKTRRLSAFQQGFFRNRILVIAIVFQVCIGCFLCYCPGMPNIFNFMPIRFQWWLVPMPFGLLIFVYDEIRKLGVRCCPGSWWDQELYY
- method.summary: Inhibition of K+ stimulated gastric ATPase activity
measured.parameter: IC50 (nM)

1) Cc1cc(F)ccc1Nc1nc2c(C)cccc2c2c1CCN2c1ccccc1C
130
2) Cc1cc(F)ccc1Nc1nc(N(C)c2ccccc2)c2sccc2n1
34
3) Cc1ccccc1Nc1nc(N(C)c2ccccc2)c2ccccc2n1
22
4) COc1cccc2c(N(C)c3ccccc3)nc(Nc3ccc(F)cc3C)nc12
32

(1) Cc1cc(F)ccc1Nc1nc(N(C)c2ccccc2)c2cc(OCCCN(C)C)ccc2n1
(2) CNc1nc2c(C)cccc2c2c1CCN2c1ccccc1C
Ask: Consider 1 and 2 . Which of these has its IC50 at a higher number? Your choice should be expressed through its label.
Result: 1
(1: 1100 nM, 2: 180 nM)

(1) Cc1cc(F)ccc1Nc1nc(N(C)c2ccccc2)c2ccccc2n1
(2) Cc1cc(Cl)ccc1Nc1nc(N(C)c2ccccc2)c2ccccc2n1
Ask: Consider 1 and 2 . Which of these has its IC50 at a higher number? Your choice should be expressed through its label.
Result: 2
(2: 41 nM, 1: 21 nM)

(A) CNc1nc(Nc2ccccc2C)c2cccc(OC)c2n1
(B) COc1cccc2c(Nc3ccccc3C)nc(NCCc3ccccc3)nc12
(C) COc1ccc2nc(Nc3ccc(F)cc3C)nc(N(C)c3ccccc3)c2c1
(D) Cc1ccccc1Nc1nc(N(C)c2ccc(O)cc2)c2ccccc2n1
Ask: I would appreciate it if you could sort these 4 compounds by IC50, starting from the smallest number. List the labels according to the requested ordering.
Result: D, C, A, B

(a) Cc1cc(F)ccc1Nc1nc(N(C)c2ccccc2)c2cc(O)ccc2n1
(b) COc1cccc2c(Nc3ccccc3C)nc(N(C)c3ccccc3)nc12
Ask: Select the item whose IC50 value is smaller, choosing between a and b . Your choice should be expressed through its label.
Result: a

(P) CN(c1ccccc1)c1nc(N(C)c2ccccc2)c2ccccc2n1
(Q) Cc1ccccc1Nc1nc(N2CCCC2)nc2ccccc12
Ask: Select the item whose IC50 value is smaller, choosing between P and Q . Your choice should be expressed through its label.
Result: P

----------
- tested.target: Potassium-transporting ATPase (Rattus norvegicus) (UniProt P09626+P18598)
- method.summary: Inhibition of pentagastrin stimulated gastric acid secretion in anesthetized rat 10 uM/kg, on iv administration of the compound.
- Format: functional, organism-based
- setup.conditions: Stomach
measured.parameter: inhibition (%)

1) Cc1ccccc1Nc1nc(N(C)c2ccccc2)c2cccc(OCCO)c2n1
93
2) Cc1cc(F)ccc1Nc1nc(N(C)c2ccccc2)c2cccc(OCCCN3CCOCC3)c2n1
73
3) Cc1cc(F)ccc1Nc1nc(N(C)c2ccccc2)c2cccc(OCCCN(C)C)c2n1
68
